- Assay Summary: amyloid nucleation score (Sup35N fusion, yeast selection) (log enrichment); library NNK2; higher = more nucleation; inactive = no reads after selection;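 note: zero at mode of non-aggregating sequences after 7 days selection at 30°C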
Cut-off -0.2 on amyloid nucleation score, inclusive. At or above means T; below means F.

Solved entries (count: 2):
GMLEGCRHHGIGWKGYACGQ | T
VKCLGAFGDE | T

[in] Is the recorded value of amyloid nucleation score equal to or greater than -0.2 for this substance? DTKTIRFLYKRYRLSWQVSE
[out] T

[in] Is the recorded value of amyloid nucleation score equal to or greater than -0.2 for this substance? TLGTLRQ
[out] T

[in] Is the recorded value of amyloid nucleation score equal to or greater than -0.2 for this substance? WIITNCSLFFSVALS
[out] T

[in] Is the recorded value of amyloid nucleation score equal to or greater than -0.2 for this substance? DIGSMYEMLCRVVTIVLPRS
[out] F

[in] Is the recorded value of amyloid nucleation score equal to or greater than -0.2 for this substance? DGSHYFIVRDPVNSCLSSWV
[out] F

[in] Is the recorded value of amyloid nucleation score equal to or greater than -0.2 for this substance? PFGMCSFTVVIYYGCFEDAH
[out] T

[in] Is the recorded value of amyloid nucleation score equal to or greater than -0.2 for this substance? AWDRDVNDENLVSIYMCRKL
[out] F

[in] Is the recorded value of amyloid nucleation score equal to or greater than -0.2 for this substance? SMAFREILLLMGSMLSCIRS
[out] F

[in] Is the recorded value of amyloid nucleation score equal to or greater than -0.2 for this substance? MLCRNIHRCKMHREPLGVFH
[out] T

[in] Is the recorded value of amyloid nucleation score equal to or greater than -0.2 for this substance? ECSHQIL
[out] T

[in] Is the recorded value of amyloid nucleation score equal to or greater than -0.2 for this substance? TVSHDTGFGRNFFHVLLLS
[out] T

[in] Is the recorded value of amyloid nucleation score equal to or greater than -0.2 for this substance? LMLLYIRSKYGEFVWIPKVH
[out] T

[in] Is the recorded value of amyloid nucleation score equal to or greater than -0.2 for this substance? PKQDTA
[out] F
